- assayed-system: human mAChR M1 (Homo sapiens)
- Sequence (P11229 whole entry): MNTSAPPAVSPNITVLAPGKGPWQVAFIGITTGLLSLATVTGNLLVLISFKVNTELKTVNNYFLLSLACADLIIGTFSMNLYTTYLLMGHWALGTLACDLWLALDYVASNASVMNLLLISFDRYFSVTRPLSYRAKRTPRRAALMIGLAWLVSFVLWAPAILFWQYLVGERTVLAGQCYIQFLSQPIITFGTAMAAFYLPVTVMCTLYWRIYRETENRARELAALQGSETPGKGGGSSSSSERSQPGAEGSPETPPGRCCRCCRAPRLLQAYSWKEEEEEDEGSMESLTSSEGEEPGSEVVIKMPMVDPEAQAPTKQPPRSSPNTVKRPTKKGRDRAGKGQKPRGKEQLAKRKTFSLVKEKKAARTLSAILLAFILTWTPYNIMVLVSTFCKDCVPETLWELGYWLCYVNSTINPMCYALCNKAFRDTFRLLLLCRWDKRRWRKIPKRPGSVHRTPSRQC
- measurement-protocol: mAChR M1 cell-based functional assay (calcium mobilization), agonist mode: compound alone, Emax relative to acetylcholine maximum
- condition-info: human mAChR M1
pEC50: −log10 of the molar value.
measure-name: pEC50

### Prompt Tell me its pEC50 on human mAChR M1 (Homo sapiens): "[2H]C1([2H])c2ncccc2C(=O)N1Cc1ccc(-c2cnc3nn(C)cc3c2)cc1C"
### Response < 5.00

### Prompt Tell me its pEC50 on human mAChR M1 (Homo sapiens): "[2H]C1([2H])c2ncccc2C(=O)N1Cc1c(F)cc(-c2ccc(O[C@H](C)COC)c3nn(C)cc23)cc1F"
### Response ≤ 5.00

### Prompt Tell me its pEC50 on human mAChR M1 (Homo sapiens): "[2H]C1([2H])c2ncccc2C(=O)N1Cc1ccc(-c2ccc(OCCOC(C)C)c3nn(C)cc23)cc1F"
### Response ≤ 5.00

Where do these numbers come from? They come from patent US20240228489A1.
